Biological target: MBP-FoxP3dN (Mus musculus, UniProt Q99JB6 188-423)
Sequence: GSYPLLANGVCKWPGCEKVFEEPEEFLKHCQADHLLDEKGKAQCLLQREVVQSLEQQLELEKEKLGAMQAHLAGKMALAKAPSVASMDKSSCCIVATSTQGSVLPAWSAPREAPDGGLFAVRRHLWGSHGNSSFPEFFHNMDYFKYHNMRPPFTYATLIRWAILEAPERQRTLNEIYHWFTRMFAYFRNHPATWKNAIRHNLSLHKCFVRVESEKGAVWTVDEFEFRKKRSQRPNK
Test: PD-seq (MBP pull-down with sequencing); 20 mM Tris-HCl pH 7.5, 100 mM NaCl, 1.5 mM MgCl2, 0.4 uM protein, 0.1 uM dsDNA library, 30 min, room temperature, amylose pull-down; high values mean tight binding
Settings: protein: recombinant; tags: His6-MBP; chain copies: 2; dsDNA, one strand shown
The full ranking holds about 16,000 sequences; the median of “rpm ratio (pull-down/input)” is about 0.5, and the highest 2% start at about 5.5. This excerpt belongs to a sample that is enriched for the highest values.
observable: binding signal

Query: Which value of binding signal has been reported for GATGATTGTTCTCCCAGCTGATGAATTGCGATGGTCGAGTAAACAAATTTTCCTAATCTTTCTGTTCAAGCGCCATCTAC in the records?
Result: 1.01 RPM ratio (pull-down/input)

Query: Try this sequence too: GATGATTGTTCTCCCAGCTGATGAATTCTTGACCTCGAGTAAACAAATTTTCCTAATCTTTCTGTTCAAGCGCCATCTAC
Result: 0.216 RPM ratio (pull-down/input)

Query: Try this sequence too: GATGATTGTTCTCCCAGCTGATGAATTTGACGTATCGAGTAAACAAATTTTCCTAATCTTTCTGTTCAAGCGCCATCTAC
Result: 1.27 RPM ratio (pull-down/input)

Query: Try this sequence too: GATGATTGTTCTCCCAGCTGATGAATTGACTCCCTCGAGTAAACAAATTTTCCTAATCTTTCTGTTCAAGCGCCATCTAC
Result: 0.386 RPM ratio (pull-down/input)

Query: Try this sequence too: GATGATTGTTCTCCCAGCTGATGAATTGCTACCATCGAGTAAACAAATTTTCCTAATCTTTCTGTTCAAGCGCCATCTAC
Result: 0.894 RPM ratio (pull-down/input)

Others:
Query: Which value of binding signal has been reported for GATGATTGTTCTCCCAGCTGATGAATTGGCCACGTCGAGTAAACAAATTTTCCTAATCTTTCTGTTCAAGCGCCATCTAC in the records?
Result: 0.526 RPM ratio (pull-down/input)

Query: Try this sequence too: GATGATTGTTCTCCCAGCTGATGAATTACGTGCCTCGAGTAAACAAATTTTCCTAATCTTTCTGTTCAAGCGCCATCTAC
Result: 0.855 RPM ratio (pull-down/input)
